These entries and their values trace back to paper PMC3365763.

- test_target: TG2 (transglutaminase-2, transglutaminase type 2) (Homo sapiens, UniProt P21980, R19S)
- Sequence (P21980 1-687 R19S): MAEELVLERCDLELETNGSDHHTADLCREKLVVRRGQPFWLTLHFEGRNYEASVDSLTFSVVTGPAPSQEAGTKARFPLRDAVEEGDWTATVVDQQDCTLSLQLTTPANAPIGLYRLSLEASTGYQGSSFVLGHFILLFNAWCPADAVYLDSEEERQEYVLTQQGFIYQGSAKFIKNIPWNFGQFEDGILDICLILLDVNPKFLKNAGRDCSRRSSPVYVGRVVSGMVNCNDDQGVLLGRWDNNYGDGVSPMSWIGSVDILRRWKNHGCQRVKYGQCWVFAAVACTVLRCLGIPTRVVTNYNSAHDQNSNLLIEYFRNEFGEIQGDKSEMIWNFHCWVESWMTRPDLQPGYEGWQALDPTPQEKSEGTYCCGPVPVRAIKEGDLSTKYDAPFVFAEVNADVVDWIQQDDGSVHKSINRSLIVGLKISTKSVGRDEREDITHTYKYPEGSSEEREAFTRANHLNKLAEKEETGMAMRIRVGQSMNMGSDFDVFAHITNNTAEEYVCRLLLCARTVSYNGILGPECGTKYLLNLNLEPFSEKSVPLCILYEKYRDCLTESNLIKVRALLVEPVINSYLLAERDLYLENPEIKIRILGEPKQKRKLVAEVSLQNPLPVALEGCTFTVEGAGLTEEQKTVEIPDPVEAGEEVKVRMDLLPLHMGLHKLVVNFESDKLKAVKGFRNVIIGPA
observation_type: IC50 (µM)
Numbers only, in µM.

query: Which value of IC50 has been reported for Nc1nc2c(ncn2[C@@H]2O[C@H](COP(=O)(O)OP(=O)(O)OP(=O)(O)O)[C@@H](O)[C@H]2O)c(=O)[nH]1 in the records?
result: 254
